- systemUnderTest: baculosome-derived full-length SQLE (Homo sapiens, UniProt Q14534)
- Construct: we overexpressed full-length SQLE in Sf9 cells using a baculovirus system; made in house; host or cells: Sf9 insect cells (baculovirus), membrane preparation (baculosomes)
- Sequence (Q14534 whole entry): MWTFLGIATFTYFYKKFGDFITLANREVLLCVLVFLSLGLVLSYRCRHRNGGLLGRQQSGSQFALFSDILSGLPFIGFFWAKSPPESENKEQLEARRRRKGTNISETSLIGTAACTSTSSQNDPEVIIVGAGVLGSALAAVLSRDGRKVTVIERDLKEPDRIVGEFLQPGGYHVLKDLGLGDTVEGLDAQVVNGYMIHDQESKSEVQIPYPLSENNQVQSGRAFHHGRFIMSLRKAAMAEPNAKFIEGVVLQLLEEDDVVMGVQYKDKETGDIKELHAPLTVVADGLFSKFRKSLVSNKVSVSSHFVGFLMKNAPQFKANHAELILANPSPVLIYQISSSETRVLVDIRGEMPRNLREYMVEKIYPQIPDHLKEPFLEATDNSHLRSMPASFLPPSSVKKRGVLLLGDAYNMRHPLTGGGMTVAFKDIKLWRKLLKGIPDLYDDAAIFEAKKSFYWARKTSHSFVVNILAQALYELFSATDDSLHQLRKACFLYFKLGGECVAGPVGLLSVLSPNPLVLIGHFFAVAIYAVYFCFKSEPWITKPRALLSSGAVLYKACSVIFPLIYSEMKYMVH
- methodNotes: Biochemistry assay of SQLE activity with SQLE baculosomes (LC-MS/MS detection of 2,3-oxidosqualene)
- Format: biochemical
- experimentalConditions: baculosome-derived SQLE; 1 h pre-incubation; 100 μM squalene; read-out: IC50
assayMetric: IC50 (µM)

>  <compound>
CCN(CC#CC#CC(C)(C)OC)Cc1cccc(OC[Si](C)(C)c2cccc(C)c2)c1 [Cmpd-4′′.ia]

>  <comparisonSymbol>
>

>  <valueReported>
100

$$$$
>  <compound>
CCN(CC#CC#CC(C)(C)OC)Cc1cccc(OC[Si](C)(C)c2ccccc2C)c1 [Cmpd-4′′]

>  <comparisonSymbol>
=

>  <valueReported>
0.069

$$$$
>  <compound>
CCN(C/C=C/C#CC(C)(C)C)Cc1cccc(OCc2cc(-c3ccccc3)cs2)c1 [NB-598.ia]

>  <comparisonSymbol>
>

>  <valueReported>
100

$$$$
>  <compound>
CCN(C/C=C/C#CC(C)(C)C)Cc1cccc(OCc2cc(-c3ccsc3)cs2)c1 [NB-598]

>  <comparisonSymbol>
=

>  <valueReported>
0.063

$$$$

====

- systemUnderTest: baculosome-derived full-length SQLE (Homo sapiens, UniProt Q14534)
- Construct: we overexpressed full-length SQLE in Sf9 cells using a baculovirus system; made in house; host or cells: Sf9 insect cells (baculovirus), membrane preparation (baculosomes)
- methodNotes: Biochemistry assay of SQLE activity with SQLE baculosomes (LC-MS/MS detection of 2,3-oxidosqualene)
- Assay type: biochemical
- experimentalConditions: IC50, time-dependent inhibition, upon increasing incubation time, compound incubation time varied from 0 to 6 h; final value; 15 min reaction
pIC50: −log10 of the molar value.

>  <compound>
CCN(C/C=C/C#CC(C)(C)C)Cc1cccc(OCc2cc(-c3ccsc3)cs2)c1 [NB-598]

>  <systemUnderTest>
baculosome-derived full-length SQLE (Homo sapiens, UniProt Q14534)

>  <pIC50>
7.52

$$$$

====

- systemUnderTest: baculosome-derived full-length SQLE (Homo sapiens, UniProt Q14534)
- Construct: we overexpressed full-length SQLE in Sf9 cells using a baculovirus system; made in house; host or cells: Sf9 insect cells (baculovirus), membrane preparation (baculosomes)
- methodNotes: Biochemistry assay of SQLE activity with SQLE baculosomes (LC-MS/MS detection of 2,3-oxidosqualene)
- Assay type: biochemical
- experimentalConditions: IC50, time-dependent inhibition, before increasing incubation time, compound incubation time varied from 0 to 6 h; starting value; 15 min reaction
assayMetric: IC50 (nM)

>  <compound>
CCN(CC#CC#CC(C)(C)OC)Cc1cccc(OC[Si](C)(C)c2ccccc2C)c1

>  <valueReported>
800

$$$$
>  <compound>
CCN(C/C=C/C#CC(C)(C)C)Cc1cccc(OCc2cc(-c3ccsc3)cs2)c1

>  <valueReported>
120

$$$$
